System: Ramos cells
Experiment: Cytotoxicity in Ramos cells
Assay type: cell-based
Details: Homo sapiens; cytotoxicity in Ramos cells; read-out: Ramos Cell EC50
pEC50: −log10 of the molar value.
Readout Type: pEC50

Examples with answers:
molecule="CCC(C)N/C(=N/C(=O)c1ccc(F)cc1)Nc1cc(-c2ccc(C)c(F)c2)n[nH]1 (stereo not drawn)" readout_type=pEC50 result="> 5.00"
molecule=CC(C)(CO)N/C(=N/C(=O)c1ccc(F)cc1)Nc1cc(-c2ccc(F)cc2)n[nH]1 readout_type=pEC50 result="< 5.00"
molecule=Cc1ccc(C(=O)N=C(NCc2ccc(F)cc2Cl)Nc2cc(C(F)(F)F)n[nH]2)cc1F readout_type=pEC50 result="> 5.00"
molecule=O=C(/N=C(/NCc1ccc(F)cc1Cl)Nc1cc(C(F)(F)F)[nH]n1)c1ccc(Cl)cc1 readout_type=pEC50 result="> 5.00"
molecule=O=C(/N=C(/Nc1cc(C(F)(F)F)n[nH]1)NC1CCCC1)c1ccc(Cl)c(F)c1 readout_type=pEC50 result="> 5.00"
molecule=CCC(CC)NC(=NC(=O)c1ccc(Cl)c(F)c1)Nc1cc(-c2cc(F)cc(F)c2)n[nH]1 readout_type=pEC50 result="> 5.00"
molecule=CCC(C)(C)N/C(=N/C(=O)c1cccc(C(F)(F)F)c1)Nc1cc(C(F)(F)F)[nH]n1 readout_type=pEC50 result="> 5.00"
molecule="COCC(C)NC(=NC(=O)c1ccc(F)c(F)c1)Nc1cc(-c2ccc(Cl)cc2)n[nH]1 (stereo not drawn)" readout_type=pEC50 result="> 5.00"

# next molecule below
[in] Consider the molecule CC(C)(C)CN/C(=N/C(=O)c1ccc(F)c(F)c1)Nc1cc(C(F)(F)F)n[nH]1 and give its measured pEC50.
[out] > 5.00

----------
Tested on: Ramos cells
Test: Cytotoxicity in Ramos cells
Assay type: cell-based
Settings: Homo sapiens; cytotoxicity in Ramos cells; read-out: Ramos Cell EC50
Let's look at some molecules and their measured EC50.

Completed entries (count: 4):
molecule=CC(C)(C)NC(=NC(=O)c1cccc(O)c1)Nc1cc(-c2ccc(F)cc2)n[nH]1 test_system="Ramos cells" result="< 10 µM"
molecule="CC(N/C(=N/C(=O)c1ccc(F)c(F)c1)Nc1cc(C(F)(F)F)[nH]n1)c1ccccc1Cl (stereo not shown)" test_system="Ramos cells" result="< 10 µM"
molecule=CC(C)OCCCNC(=NC(=O)c1ccc(F)c(F)c1)Nc1cc(-c2cc(F)cc(Cl)c2)n[nH]1 test_system="Ramos cells" result="< 10 µM"
molecule=CC(C)(C)N/C(=N/C(=O)c1ccc(C(F)(F)F)cc1)Nc1cc(C(F)(F)F)n[nH]1 test_system="Ramos cells" result="< 10 µM"

[in] GET /values?readout=EC50&system=Ramos cells&item= Cc1cccc(C(=O)N=C(Nc2cc(-c3ccc(F)cc3)n[nH]2)NC(C)(C)C)c1
[out] < 10 µM

[in] Now the molecule CC1(C)Cn2nc(-c3ccc(F)cc3)cc2N/C(=N\C(=O)c2ccc(F)cc2)N1
[out] < 10 µM

[in] Input COCC(C)NC(=NC(=O)c1ccc(F)c(F)c1)Nc1cc(-c2cc(F)cc(Cl)c2)n[nH]1 (stereo not shown)
[out] < 10 µM

----------
Let's look at some molecules and their measured EC50.
Tested on: Ramos cells
Test: Cytotoxicity in Ramos cells
Assay type: cell-based
Conditions: Homo sapiens; cytotoxicity in Ramos cells; read-out: Ramos Cell EC50

molecule="CCC(C)NC(=NC(=O)c1ccc(Cl)c(F)c1)Nc1cc(-c2cc(F)cc(F)c2)n[nH]1 (stereo not shown) [Compound A-362]" result="< 10 µM"

[in] For O=C(/N=C(\Nc1cc(C(F)(F)F)n[nH]1)NC1CCCOC1)c1ccc(Cl)c(F)c1 (stereo not shown) [Compound A-119] , what is its reported EC50?
[out] < 10 µM

[in] Quick one: CCC(C)NC(=NC(=O)c1ccc(C(F)(F)F)cc1)Nc1cc(-c2cc(F)cc(F)c2)n[nH]1 (stereo not shown) [Compound A-297]
[out] < 10 µM

[in] Entry to check: CCOCCCNC(=NC(=O)c1ccc(Cl)cc1)Nc1cc(-c2ccc(F)cc2)n[nH]1 [Compound A-278]
[out] > 10 µM

----------
Biological target: F1F0-ATPase (Bos taurus)
pIC50: −log10 of the molar value.
Below, each of the compounds is paired with its reported pIC50 value.

Before answering, review these 5 worked examples.
molecule=C[C@@H](CO)N/C(=N/C(=O)c1ccc(F)cc1)Nc1cc(-c2ccc(F)cc2)n[nH]1 result="< 5.00"
molecule=CC(C)(C)N/C(=N/C(=O)c1ccc(Cl)c(F)c1)Nc1cc(C(F)F)[nH]n1 result="> 5.00"
molecule=COc1ccc(C(=O)/N=C(\Nc2cc(-c3ccc(F)cc3)[nH]n2)NC(C)(C)C)cc1 result="> 5.00"
molecule=CCc1ccc(-c2cc(N/C(=N\C(=O)c3ccc(F)c(F)c3)NC(C)(C)C)[nH]n2)cc1 result="> 5.00"
molecule=COC[C@@H](C)NC(=NC(=O)c1ccc(F)cc1)Nc1cc(-c2ccc(F)cc2)n[nH]1 result="> 5.00"

[in] Item Cc1ccc(-c2cc(N/C(=N\C(=O)c3ccc(F)c(F)c3)Nc3cc(F)cc(Cl)c3)n[nH]2)cc1F has what recorded pIC50?
[out] < 5.00

[in] Repeat for the following compound: C[C@@H](N/C(=N\C(=O)c1ccc(Cl)c(F)c1)Nc1cc(C(F)(F)F)n[nH]1)C1CCCCC1
[out] > 5.00

[in] Moving on to COc1ccc(C(=O)/N=C(\Nc2cc(-c3ccc(F)cc3)[nH]n2)NC(C)C)cc1
[out] > 5.00

[in] Next compound up: O=C(N=C(Nc1cc(-c2cc(F)cc(F)c2)n[nH]1)Nc1ccc(F)cc1Cl)c1ccc(C(F)(F)F)cc1
[out] > 5.00

----------
System: Ramos cells
Experiment: Cytotoxicity in Ramos cells
Assay type: cell-based
Conditions: Homo sapiens; cytotoxicity in Ramos cells; read-out: Ramos Cell EC50
Consider the following molecules and their measured EC50 readings.

See these solved cases before continuing.
molecule="COC[C@H](C)NC(=NC(=O)c1ccc(F)cc1)Nc1cc(-c2ccc(F)cc2)n[nH]1 [Compound A-533]" readout_type=EC50 result="< 10 µM"
molecule="CC(C)(C)CN/C(=N/C(=O)c1ccc(C#N)cc1)Nc1cc(C(F)(F)F)[nH]n1 [Compound A-70]" readout_type=EC50 result="< 10 µM"
molecule="COCC(C)N/C(=N/C(=O)c1ccc(Cl)c(F)c1)Nc1cc(C(F)(F)F)n[nH]1 (centres unmarked) [Compound A-120]" readout_type=EC50 result="< 10 µM"
molecule="N#CC1(N/C(=N/C(=O)c2ccc(Cl)c(F)c2)Nc2cc(-c3cc(F)cc(F)c3)n[nH]2)CC1 [Compound A-343]" readout_type=EC50 result="> 10 µM"

Now take the following molecule into account.
[in] Observed EC50 on Ramos cells for COc1cccc(C(=O)N=C(Nc2cc(-c3ccc(F)cc3)n[nH]2)NC2CCCC2)c1 [Compound A-519] , please.
[out] < 10 µM

----------
// reported EC50 for each item listed
System: Ramos cells
Test: Cytotoxicity in Ramos cells
Assay type: cell-based
Settings: Homo sapiens; cytotoxicity in Ramos cells; read-out: Ramos Cell EC50

See these solved cases before continuing.
compound="CC(C)CNC(=NC(=O)c1ccc(N2CCOCC2)nc1)Nc1cc(-c2ccc(F)cc2)n[nH]1 [Compound A-163]" readout_type=EC50 result="< 10 µM"
compound="C[C@H](N/C(=N\\C(=O)c1ccc(C(F)(F)F)cc1)Nc1cc(C(F)(F)F)n[nH]1)C1CCCCC1 [Compound A-94]" readout_type=EC50 result="< 10 µM"
compound="O=C(N=C(Nc1cc(-c2cc(F)cc(F)c2)n[nH]1)Nc1ccc(F)cc1Cl)c1ccc(C(F)(F)F)cc1 [Compound A-294]" readout_type=EC50 result="> 10 µM"

// moving on: another record for EC50
[in] Notebook entry, Ramos cells assay: EC50 of O=C(N=C(Nc1cc(-c2ccc(F)cc2)n[nH]1)NC1CCC1)c1ccc(Cl)cc1 [Compound A-264] = ?
[out] < 10 µM

----------
System: Ramos cells
Test: Cytotoxicity in Ramos cells
Assay type: cell-based
Settings: Homo sapiens; cytotoxicity in Ramos cells; read-out: Ramos Cell EC50
Readout Type: EC50

See these solved cases before continuing.
compound="CC(C)C(C)NC(=NC(=O)c1ccc(Cl)c(F)c1)Nc1cc(-c2cc(F)cc(F)c2)n[nH]1 (centres unmarked) [Compound A-351]" result="< 10 µM"
compound="CCc1cc(C(=O)/N=C(\\Nc2cc(-c3ccc(F)cc3)n[nH]2)NC(C)CC)ccn1 (centres unmarked) [Compound A-174]" result="< 10 µM"
compound="O=C(N=C(Nc1cc(-c2ccc(F)cc2)n[nH]1)NC1CCC1)c1ccc(F)c(F)c1 [Compound A-259]" result="< 10 µM"
compound="CN(/C(=N\\C(=O)c1ccc(F)c(F)c1)NC(C)(C)C)c1cc(C(F)(F)F)[nH]n1 [Compound A-44]" result="> 10 µM"
compound="O=C(N=C(Nc1cc(-c2ccc(F)cc2)n[nH]1)NC1CCOCC1)c1ccc(Cl)c(F)c1 [Compound A-139]" result="> 10 µM"
compound="CCC(C)NC(=NC(=O)c1cccc(C#N)c1)Nc1cc(-c2cc(F)cc(F)c2)n[nH]1 (centres unmarked) [Compound A-313]" result="< 10 µM"
compound="CC1(N/C(=N/C(=O)c2ccc(Cl)cc2)Nc2cc(C(C)(C)C)[nH]n2)CCC1 [Compound A-17]" result="< 10 µM"
compound="O=C(N=C(Nc1cc(F)cc(Cl)c1)Nc1cc(-c2cccc(C(F)(F)F)c2)[nH]n1)c1ccc(F)c(F)c1 [Compound A-422]" result="< 10 µM"
compound="C[C@H](N/C(=N\\C(=O)c1ccc(Cl)cc1)Nc1cc(C(F)(F)F)n[nH]1)C1CCCCC1 [Compound A-109]" result="< 10 µM"
compound="O=C(/N=C(/NCc1ccc(F)c(Cl)c1)Nc1cc(C(F)F)[nH]n1)c1ccc(Cl)cc1 [Compound A-56]" result="> 10 µM"

[in] Test system Ramos cells; read-out EC50; what value for O=C(N=C(Nc1cc(F)cc(Cl)c1)Nc1cc(-c2ccc(Cl)cc2)n[nH]1)c1ccc(Cl)c(F)c1 [Compound A-149] ?
[out] < 10 µM

[in] Now this one: CC(C)(C)CN/C(=N/C(=O)c1ccc(C(F)(F)F)cc1)Nc1cc(C(F)(F)F)n[nH]1 [Compound A-51]
[out] < 10 µM

[in] Can you handle CCOC[C@H](C)NC(=NC(=O)c1ccc(Cl)cc1)Nc1cc(-c2ccc(F)cc2)n[nH]1 [Compound A-265] next?
[out] < 10 µM

[in] Do the same for Cc1cc(N/C(=N\C(=O)c2ccc(F)c(F)c2)Nc2cc(F)cc(Cl)c2)n[nH]1 [Compound A-45] please
[out] > 10 µM
